pKi: −log10 of the molar value.
Header: pKi / Metabotropic glutamate receptor 5 (Rattus norvegicus, UniProt P31424) / multiple publications

[[record]]
smiles_text = "O=S(=O)(c1ccc(Cl)cc1)c1cnc2c(F)cccc2c1N1CCOCC1"
observed_measurement = "6.30 to 6.70"


Input: Given the compound Cc1ccc(S(=O)(=O)c2sc3ncccc3c2-c2ccc(F)cc2)cc1Cl , what is its reported pKi?
Output: > 6.30

Input: Given the compound COc1ccc2ncc(S(=O)(=O)c3cccc(C#N)c3)c(N3CCOCC3)c2c1 , what is its reported pKi?
Output: < 6.30

Input: Given the compound O=S(=O)(c1cc(F)cc(F)c1)c1cnc2c(F)cccc2c1-c1cccc(F)c1 , what is its reported pKi?
Output: > 6.70

====

pKi: −log10 of the molar value.
Header: pKi / Metabotropic glutamate receptor 5 (Rattus norvegicus, UniProt P31424) / multiple publications

[[record]]
smiles_text = "Cc1cccc(S(=O)(=O)c2sc3ncccc3c2-c2ccc(Cl)cc2)c1"
observed_measurement = "> 6.30"

[[record]]
smiles_text = "COc1cccc(S(=O)(=O)c2cnc3cc(Cl)ccc3c2N2CCOCC2)c1"
observed_measurement = "6.30 to 6.70"

[[record]]
smiles_text = "CC1CCN(c2c(S(=O)(=O)c3ccc(F)cc3)cnc3c(F)cccc23)CC1"
observed_measurement = "< 6.30"

[[record]]
smiles_text = "Cc1cc(C)cc(S(=O)(=O)c2sc3ncccc3c2-c2ccc(Cl)cc2)c1"
observed_measurement = "> 6.30"

[[record]]
smiles_text = "Cc1cc(C)cc(S(=O)(=O)c2cnc3cc(Cl)ccc3c2N2CCOCC2)c1"
observed_measurement = "< 6.30"

[[record]]
smiles_text = "N#Cc1cccc(S(=O)(=O)c2cnc3cc(Cl)ccc3c2-c2ccc(F)cc2)c1"
observed_measurement = "> 6.70"


Input: Fill in the recorded pKi for this compound, with Metabotropic glutamate receptor 5 (Rattus norvegicus, UniProt P31424) as test system: O=S(=O)(c1cc(Cl)cc(Cl)c1)c1cnc2cc(Cl)ccc2c1N1CCOCC1
Output: > 6.70

Input: Fill in the recorded pKi for this compound, with Metabotropic glutamate receptor 5 (Rattus norvegicus, UniProt P31424) as test system: O=S(=O)(c1cc(F)cc(F)c1)c1cnc2cc(Cl)ccc2c1-c1ccc(F)cc1
Output: > 6.70

====

Header: Ki / Metabotropic glutamate receptor 5 (Rattus norvegicus, UniProt P31424) / multiple publications

Study these solved cases before continuing.
[[record]]
smiles_text = "N#Cc1cc(F)cc(S(=O)(=O)c2sc3ncc(N)cc3c2-c2cccc(Cl)c2)c1"
observed_measurement = "7.2 nM"

[[record]]
smiles_text = "CN(C)c1ccc(S(=O)(=O)c2sc3nccc(N(C)C)c3c2-c2ccc(Cl)cc2)cc1"
observed_measurement = "> 1500 nM"

[[record]]
smiles_text = "O=S(=O)(c1cccc(C(F)(F)F)c1)c1sc2ncccc2c1-c1ccc(Cl)cc1"
observed_measurement = "< 500 nM"

[[record]]
smiles_text = "COc1cccc(S(=O)(=O)c2cnc3cc(F)ccc3c2N2CCOCC2)c1"
observed_measurement = "200 to 500 nM"

[[record]]
smiles_text = "O=S(=O)(c1ccc(Cl)cc1)c1cnc2ccc(F)cc2c1N1CCN(Cc2ccccc2)CC1"
observed_measurement = "> 500 nM"


Input: Given the compound N#Cc1cc(S(=O)(=O)c2cnc3cc(F)ccc3c2-c2cccc(Cl)c2)ccc1F , what is its reported Ki?
Output: < 200 nM

Input: Given the compound Cc1nc(C)c(S(=O)(=O)c2sc3ncccc3c2-c2ccc(Cl)cc2)s1 , what is its reported Ki?
Output: 500 to 1500 nM

Input: Given the compound Cc1ccc(S(=O)(=O)c2cnc3cc(F)ccc3c2-c2cccc(F)c2)cc1C , what is its reported Ki?
Output: < 200 nM

Input: Given the compound COc1cccc(S(=O)(=O)c2cnc3cc(F)ccc3c2-c2cccc(Cl)c2)c1 , what is its reported Ki?
Output: < 200 nM
